Data credit: PubChem BioAssay AID2060495

- Test system: 521955-158-R2-J5-PDC complex spheroid viability;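 note: spheroids exposed to agents for one week before reading; 100% = DMSO vehicle control viability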
- Test Method Notes: Anticancer human tumor 521955-158-R2-J5-PDC patient-derived pancreatic carcinoma cell line growth inhibition [GQUAD]
- Measurement Context: second compound 0.1 µM; first compound 0.0999 µM; hits give low values
Observable: viability, T/C

Which viability, T/C reading was recorded for the compound Cn1ncnc1[C@H]1c2n[nH]c(=O)c3cc(F)cc(c23)N[C@@H]1c1ccc(F)cc1 + Cc1cnc(CNC(=O)c2c(=O)c3ccc(N4CCCN(C)CC4)nc3n3c2sc2ccccc23)cn1 ?
54.2%

Which viability, T/C reading was recorded for the compound Cn1ncnc1[C@H]1c2n[nH]c(=O)c3cc(F)cc(c23)N[C@@H]1c1ccc(F)cc1 + Cc1[nH]c2ccc(F)cc2c1-c1nc2c3cccnc3c3ncccc3c2[nH]1 ?
91.1%

Which viability, T/C reading was recorded for the compound CCc1c2c(nc3ccc(O)cc13)-c1cc3c(c(=O)n1C2)COC(=O)[C@]3(O)CC + CN(C)c1ccc(Nc2c3ccc(NC(=O)CCN4CCCC4)cc3nc3cc(NC(=O)CCN4CCCC4)ccc23)cc1 ?
9.85%

Which viability, T/C reading was recorded for the compound CC[C@@]1(O)C(=O)OCc2c1cc1n(c2=O)Cc2cc3c(CN(C)C)c(O)ccc3nc2-1 + Cc1[nH]c2ccc(F)cc2c1-c1nc2c3cccnc3c3ncccc3c2[nH]1 ?
26%

Which viability, T/C reading was recorded for the compound CC[C@@]1(O)C(=O)OCc2c1cc1n(c2=O)Cc2cc3c(CN(C)C)c(O)ccc3nc2-1 + Cc1cnc(CNC(=O)c2c(=O)c3ccc(N4CCCN(C)CC4)nc3n3c2sc2ccccc23)cn1 ?
22.4%

Which viability, T/C reading was recorded for the compound CC[C@@]1(O)C(=O)OCc2c1cc1n(c2=O)Cc2cc3c(CN(C)C)c(O)ccc3nc2-1 + CN(C)c1ccc(Nc2c3ccc(NC(=O)CCN4CCCC4)cc3nc3cc(NC(=O)CCN4CCCC4)ccc23)cc1 ?
48.2%

Which viability, T/C reading was recorded for the compound CCc1c2c(nc3ccc(O)cc13)-c1cc3c(c(=O)n1C2)COC(=O)[C@]3(O)CC + Cc1[nH]c2ccc(F)cc2c1-c1nc2c3cccnc3c3ncccc3c2[nH]1 ?
5.08%

Which viability, T/C reading was recorded for the compound Cn1ncnc1[C@H]1c2n[nH]c(=O)c3cc(F)cc(c23)N[C@@H]1c1ccc(F)cc1 + CN(C)c1ccc(Nc2c3ccc(NC(=O)CCN4CCCC4)cc3nc3cc(NC(=O)CCN4CCCC4)ccc23)cc1 ?
92.2%

Which viability, T/C reading was recorded for the compound Cc1[nH]c2ccccc2c1CCNCc1ccc(/C=C/C(=O)NO)cc1 + Cc1[nH]c2ccc(F)cc2c1-c1nc2c3cccnc3c3ncccc3c2[nH]1 ?
64.5%

Which viability, T/C reading was recorded for the compound Cc1[nH]c2ccccc2c1CCNCc1ccc(/C=C/C(=O)NO)cc1 + CN(C)c1ccc(Nc2c3ccc(NC(=O)CCN4CCCC4)cc3nc3cc(NC(=O)CCN4CCCC4)ccc23)cc1 ?
54.8%

Which viability, T/C reading was recorded for the compound CCc1c2c(nc3ccc(O)cc13)-c1cc3c(c(=O)n1C2)COC(=O)[C@]3(O)CC + Cc1cnc(CNC(=O)c2c(=O)c3ccc(N4CCCN(C)CC4)nc3n3c2sc2ccccc23)cn1 ?
4.68%

Which viability, T/C reading was recorded for the compound Cc1[nH]c2ccccc2c1CCNCc1ccc(/C=C/C(=O)NO)cc1 + Cc1cnc(CNC(=O)c2c(=O)c3ccc(N4CCCN(C)CC4)nc3n3c2sc2ccccc23)cn1 ?
33.2%
